Please go through the items and note down their inhibition at 20 µM.
Target: UniProt:P61586
Sequence (P61586 whole entry): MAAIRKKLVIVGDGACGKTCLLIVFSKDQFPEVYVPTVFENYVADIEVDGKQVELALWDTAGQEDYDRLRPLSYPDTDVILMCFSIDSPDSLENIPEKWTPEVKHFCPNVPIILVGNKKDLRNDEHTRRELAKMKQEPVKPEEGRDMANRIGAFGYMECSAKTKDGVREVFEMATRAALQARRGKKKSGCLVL
Test: Rho inhibition assay (labeled GTP)
Format: binding
Details: read-out: Rho-A % Inh.

Example cases with answers are listed next.
molecule="Oc1nc(-c2ccccn2)nc2c(CC3CNC3)csc12 [drawing 3837]" measured_property="inhibition at 20 µM" measurement="76 to 100%"
molecule="COc1cc(C)c(-c2csc3c(O)nc(-c4ccccn4)nc23)cc1C [drawing 3741]" measured_property="inhibition at 20 µM" measurement="25 to 50%"
molecule="N#Cc1ccc(COCC(=O)Nc2ccnc(-c3ccccn3)n2)cc1 [drawing 3685]" measured_property="inhibition at 20 µM" measurement="51 to 75%"

Below are some molecules; for each one, tell me its inhibition at 20 µM.
1. N#Cc1ccc(COCC(=O)Nc2nc(-c3ccccn3)nc3sccc23)cc1 [drawing 3688]
2. CC(C)COc1ccc(-c2csc3c(O)nc(-c4ccccn4)nc23)cn1 [drawing 3749]

Response:
76 to 100%
51 to 75%

* * *

Biological target: KRas G12D mutant protein (Homo sapiens (Human), UniProt P01116, G12D)
Sequence (P01116-2 other isoform, or with tags, fused parts or gaps G12D): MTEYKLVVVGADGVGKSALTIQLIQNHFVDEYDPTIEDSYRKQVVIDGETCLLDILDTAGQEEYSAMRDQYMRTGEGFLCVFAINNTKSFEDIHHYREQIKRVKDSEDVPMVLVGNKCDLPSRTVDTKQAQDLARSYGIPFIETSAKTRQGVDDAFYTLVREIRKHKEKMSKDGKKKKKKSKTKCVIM
Test: Ras GTP binding domain inhibition assay (labeled GTP)
Settings: at 20 μM; read-out: KRas G12D % Inh.
What inhibition at 20 µM was measured for each of the following?

molecule="Cn1cnc(-c2nc(O)c3scc(-c4cccc(C(F)(F)F)c4)c3n2)c1 [drawing 3922]" assay_target="KRas G12D mutant protein (Homo sapiens (Human), UniProt P01116, G12D)" measured_property="inhibition at 20 µM" measurement="25 to 50%"
molecule="COCCNc1nc(-c2nccn2C)nc2sc(-c3ccccc3)c(-c3ccccn3)c12 [drawing 3940]" assay_target="KRas G12D mutant protein (Homo sapiens (Human), UniProt P01116, G12D)" measured_property="inhibition at 20 µM" measurement="25 to 50%"
molecule="Cc1cnccc1-c1csc2c(O)nc(-c3ccccn3)nc12 [drawing 3760]" assay_target="KRas G12D mutant protein (Homo sapiens (Human), UniProt P01116, G12D)" measured_property="inhibition at 20 µM" measurement="51 to 75%"
molecule="Cn1ccnc1-c1nc(O)c2scc(-c3cccc(C(F)(F)F)c3)c2n1 [drawing 3916]" assay_target="KRas G12D mutant protein (Homo sapiens (Human), UniProt P01116, G12D)" measured_property="inhibition at 20 µM" measurement="25 to 50%"
molecule="Cn1ccnc1-c1nc(O)c2scc(-c3ccccc3)c2n1 [drawing 3932]" assay_target="KRas G12D mutant protein (Homo sapiens (Human), UniProt P01116, G12D)" measured_property="inhibition at 20 µM" measurement="51 to 75%"

// each listed molecule needs a value for inhibition at 20 µM
1. Nc1cccc(-c2csc3c(O)nc(-c4ccccn4)nc23)n1 [drawing 3832]
2. COc1ccc(-c2csc3c(O)nc(-c4nccn4C)nc23)cn1 [drawing 3931]
3. O=C(O)c1cc2nc(-c3ccccn3)nc(O)c2s1 [drawing 3722]

Response:
1: 51 to 75%; 2: 51 to 75%; 3: 51 to 75%

Request: Enter reported inhibition at 20 µM observed with KRas G12D mutant protein (Homo sapiens (Human), UniProt P01116, G12D) for Cc1sc2c(O)nc(-c3ccccn3)nc2c1-c1cccnc1 [drawing 3786]
Response: 51 to 75%
